pKi: −log10 of the molar value.
Collected pKi for 5-hydroxytryptamine receptor 1A (Rattus norvegicus, UniProt P19327) across several studies; molecules listed below.
We use 8 as the dividing line for pKi: on or above the line is 1, below is -1.

Cc1ccc(C(=O)N2CCC(F)(CNCc3cccc(N(C)C)n3)CC2)cc1Cl    1
O=C1C2C3C=CC(C4C=CC43)C2C(=O)N1CCCCN1CCN(c2cccc(Cl)c2)CC1 (stereo unspecified)    -1
C[C@@H]1CN(CCc2ccc3c(c2)sc(=O)n3C)C[C@H](C)N1    -1
O=C1c2c(ccc3ccccc23)CN1CCCCCN1CCN(c2cccc(Cl)c2Cl)CC1    -1
COc1ccccc1N1CCN(Cc2ccc(CN3CCCCC3=O)o2)CC1.O=C(O)CCC(=O)O    -1
O=C(c1ccc(F)cc1)C1CCN(CCn2c(=O)sc3cc(CCCCN4CCN(c5cccc(C(F)(F)F)c5)CC4)ccc32)CC1    -1
Cc1ccccc1-c1c(=O)n(CCCCN2CC=C(c3c[nH]c4ccc(F)cc34)CC2)c(=O)n2ccccc12    -1
COc1ccc2cccc(N3CCN(CCNC(=O)c4cccs4)CC3)c2c1    1

Query :: Form field: pKi at least 8? Entry: `CCCN(CCCCN1C(=O)CC2(CCCC2)CC1=O)[C@@H]1CCc2c(F)ccc(OC)c2C1`
Result :: 1

Query :: Follow-up entry: `O=C(c1ccc(F)c(Cl)c1)N1CCC(F)(CNCc2ccc(Cl)cn2)CC1`
Result :: 1

Query :: Follow-up entry: `CCOc1ccccc1OCCN1CCN(c2cnn(CCCCCCCN3CCN(c4ccccc4OCC)CC3)c(=O)c2Cl)CC1`
Result :: 1

Query :: Follow-up entry: `O=C(O)CN1CCN(c2ccc3ccccc3n2)CC1`
Result :: -1

Query :: Follow-up entry: `c1cnc(N2CCC(CNC[C@@H]3COc4ccccc4O3)CC2)nc1`
Result :: -1

Query :: Follow-up entry: `COc1ccccc1N1CCN(CCn2c(=O)[nH]c3[nH]c(-c4ccc(Cl)cc4)cc3c2=O)CC1`
Result :: -1

Query :: Follow-up entry: `COc1ccccc1N1CCN(CCN(C(=O)c2ccc(C(C)(C)C)cc2)c2ccccn2)CC1`
Result :: -1

Query :: Follow-up entry: `O=C(NCCCCN1CCN(c2ccc(Cl)cc2Cl)CC1)c1cc2ccccc2cn1`
Result :: -1

Query :: Follow-up entry: O=C1C2C3C=CC(C4CCC34)C2C(=O)N1CCCCN1CCN(c2cccc(Cl)c2)CC1 (stereo unspecified)
Result :: -1

Query :: Follow-up entry: O=S(=O)(NCCCCN1CCC2CCCCC2C1)c1cccc2cccnc12 (stereo unspecified)
Result :: -1

Query :: Follow-up entry: O=C1C2CCCN2C(=O)N1C/C=C/CNCC1CCc2ccccc2O1 (stereo unspecified)
Result :: -1

Query :: Follow-up entry: `Cc1cccc(-n2cc(CN3CCN(c4ccccc4)CC3)c3ccccc32)c1`
Result :: -1

Query :: Follow-up entry: `Fc1ccc2c(C3CCN(CCCOc4ccc(-c5nc6ccccc6s5)cc4)CC3)noc2c1`
Result :: -1

---

Collected pKi for 5-hydroxytryptamine receptor 1A (Rattus norvegicus, UniProt P19327) across several studies; compounds listed below.
# pKi: negative log10 of molar concentration; output just the value

COc1cccc(C2CCC(N3CCN(c4ccccc4OC)CC3)CC2)c1 (stereo in doubt; trans)    10.70
O=C1C=CC(=O)N1CCN1CCN(c2cccc3c2OCCO3)CC1    6.01
O=C(c1ccc(Cl)c(Cl)c1)N1CCC(CNCCCc2ccccn2)CC1    7.37

Below: the item to evaluate.
Query :: Reported pKi, compound `COc1ccccc1N1CCN(C/C=C/CN2C(=O)c3ccccc3C2=O)CC1` : ____
Result :: 8.30

---

Collected Ki for 5-hydroxytryptamine receptor 1A (Rattus norvegicus) across several studies; compounds listed below.
Target: 5-hydroxytryptamine receptor 1A (Rattus norvegicus)
Sequence (P19327 whole entry): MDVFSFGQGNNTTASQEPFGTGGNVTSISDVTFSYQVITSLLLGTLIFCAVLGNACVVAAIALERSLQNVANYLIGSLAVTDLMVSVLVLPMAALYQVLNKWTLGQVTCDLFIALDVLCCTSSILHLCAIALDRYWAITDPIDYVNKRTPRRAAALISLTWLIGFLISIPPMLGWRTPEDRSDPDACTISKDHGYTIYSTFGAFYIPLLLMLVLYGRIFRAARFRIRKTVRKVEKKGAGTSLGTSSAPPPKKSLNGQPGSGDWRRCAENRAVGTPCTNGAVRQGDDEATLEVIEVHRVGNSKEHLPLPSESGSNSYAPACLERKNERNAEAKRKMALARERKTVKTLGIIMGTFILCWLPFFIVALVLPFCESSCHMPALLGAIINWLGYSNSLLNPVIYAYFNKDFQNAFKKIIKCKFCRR
Don't forget the unit after the value.

Field: example entries. Status: answers known.
CCCN(Cc1ccccc1)[C@@H]1CCc2c(F)cccc2C1    28.8 nM
COc1ccccc1N1CCN(CCCCN2C(=O)CC(=C3c4ccccc4-c4ccccc43)C2=O)CC1    9 nM
O=C(CCCN1CCN(c2cccc(Cl)c2Cl)CC1)c1cc2c3c(c1)CCC(=O)N3CCC2    149 nM
Clc1ccc(N2CCN(Cc3cn(-c4ccccc4)nn3)CC2)cc1    4250 nM

Below: the item to evaluate.
Query :: Reported Ki, compound Clc1ccccc1N1CCC(CNCC2COc3ccccc3O2)CC1 (stereo not given) : ____
Result :: 17 nM

---

Collected Ki for UniProtKB P19327 across several studies; molecules listed below.
Target: UniProtKB P19327
Sequence (P19327 whole entry): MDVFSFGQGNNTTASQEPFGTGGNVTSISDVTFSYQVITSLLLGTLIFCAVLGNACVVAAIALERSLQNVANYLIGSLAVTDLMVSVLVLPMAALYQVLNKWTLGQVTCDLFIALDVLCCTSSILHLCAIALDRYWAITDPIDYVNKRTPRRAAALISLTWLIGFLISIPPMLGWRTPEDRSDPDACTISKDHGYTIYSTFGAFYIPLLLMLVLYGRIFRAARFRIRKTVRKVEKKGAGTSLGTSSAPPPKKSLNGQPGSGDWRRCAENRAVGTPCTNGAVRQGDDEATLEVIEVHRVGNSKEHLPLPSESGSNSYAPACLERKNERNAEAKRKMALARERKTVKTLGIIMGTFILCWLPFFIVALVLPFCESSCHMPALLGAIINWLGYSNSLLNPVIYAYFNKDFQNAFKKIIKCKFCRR
Binarize Ki at 1 nM; below is Criterion met, at or above is Criterion not met.

COc1ccccc1N1CCN(CN2C(=O)C3CCCN3C2=O)CC1 (stereo not given)    Criterion not met

Query :: Determine whether this molecule shows Ki lower than 1 nM (ties excluded): `CC1(C)Cc2cccc(OCCNCc3cncc(C4=CCCC4)c3)c2O1`
Result :: Criterion met

Query :: Follow-up entry: `CCCCC(=O)N(C)Cc1ccc(CN2CCN(c3ccccc3OC(C)C)CC2)n1C.O=C(O)CCC(=O)O`
Result :: Criterion met

Query :: Follow-up entry: COc1ccccc1N1CCN(CCCCN2C(=O)NC3(CCc4ccccc43)C2=O)CC1 (stereo not given)
Result :: Criterion not met

---

Collected log10 Ki for 5-hydroxytryptamine receptor 1A (Rattus norvegicus) across several studies; compounds listed below.
Would you kindly interpret these values as log10 of Ki expressed in µM?

Field: example entries. Status: answers known.
C1=C(CCN2CCN(c3cccc4c3OCCO4)CC2)c2ccccc2CCC1    -2.50
CN(CCCCNCc1cccc(-n2cccn2)n1)C(=O)c1ccccc1    -0.77
COc1ccccc1N1CCN(C(=N)NCCCCNS(=O)(=O)c2ccc(C)cc2)CC1    1.01
CN(C)CC(O)CO (stereo in doubt; 122)    0.70
COc1ccccc1N1CCN(CCCCn2nc(-c3ccc(C)cc3)c3ccccc3c2=O)CC1    -1.41
COc1ccccc1CCCCNCCOc1cc(F)cc2c1OCCC2=O    -1.62
O=C(c1ccc(Cl)c(Cl)c1)N1CCC(CNCc2cccc(N3CCC3)n2)CC1    -3.43
O=[N+]([O-])c1ccc(S(=O)(=O)N2CCC(CN3CCC(c4noc5cc(F)ccc45)CC3)CC2)cc1    -1.77

Query :: Reported log10 Ki, compound O=C1NC2(CCCCC2c2ccccc2)C(=O)N1CCCCN1CCN(c2ccccc2)CC1 (stereo not given) : ____
Result :: -0.51

Query :: Follow-up entry: `O=C1[C@@H]2[C@H]3CC[C@H](C3)[C@@H]2C(=O)N1CCCCN1CCN(c2ncccn2)CC1`
Result :: -2.05

Query :: Follow-up entry: `O=C(NCCNCc1cccc(-n2cccn2)n1)C12C[C@H]3C[C@@H](C1)C[C@@H](C2)C3`
Result :: -1.56

Query :: Follow-up entry: `c1ccc(N2CCN(CCC[C@H]3CC[C@H](Nc4ncccn4)CC3)CC2)cc1`
Result :: -1.80

Query :: Follow-up entry: COc1cccc2c1C1CCN(CCNC(=O)c3ccc(F)cc3)CC1C2 (stereo not given)
Result :: -3.23

Query :: Follow-up entry: `Cc1nc2ccccn2c(=O)c1CCN1CCC(C(=O)c2ccc(F)cc2)CC1`
Result :: 0.23

Query :: Follow-up entry: `COc1ccccc1N1CCN(CCn2c(=O)[nH]c3cc(C(C)(C)C)[nH]c3c2=O)CC1`
Result :: -1.33

Query :: Follow-up entry: `CN1CCN(c2nc(-c3ccoc3)cc(-c3ccco3)n2)CC1`
Result :: -0.38

Query :: Follow-up entry: COc1cccc2c1CCCC2CCCCN1CCN(C2=NCCCC2)CC1 (stereo not given)
Result :: -1.43

Query :: Follow-up entry: `O=C(NCCN1CCN(c2cccc3c2OCCO3)CC1)c1ccc(F)cc1`
Result :: -3.52
